procedure.details: growth inhibition of non-replicating M. tuberculosis (AID 488890);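 also: plate controls were DMSO cells for no effect and high antibiotic wells for full effect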
test.parameters: Mycobacterium tuberculosis non-replicating, at 25 µM, stronger effect = higher value
In all, about 320,000 compounds went through this assay and about 1,300 (0.41%) were called active. Not shown: some 3% with an inconclusive outcome. Only a sample is shown. Entries with a potency or affinity are not part of this list.
readout: inhibition (%)
Respond with the bare value in %.

Reference set (5 entries):
Cc1cc(C)c(S(=O)(=O)c2ccccc2C)c(OCCN(C)C)n1 : 6.46
O=C(O)CCN1C(=O)/C(=C\c2ccncc2)SC1=S : 38.8
O=C(O)CCCN1C(=O)/C(=C/c2ccncc2)SC1=S : 65
COC(=O)c1ccc(NC(=O)CN2CCN(S(=O)(=O)c3cc(Cl)ccc3OC)CC2)cc1 : 54.1
N#CCc1ccc(NC(=O)CSc2nnc(C3CC3)n2C2CC2)cc1 : -7.07

Okay, next one:
Documented inhibition of O=S(=O)(NCCN1CCOCC1)c1cc(Cl)ccc1Cl : 10.9

----------
Here the recorded inhibition is given for each entry.
procedure.details: growth inhibition of non-replicating M. tuberculosis (AID 488890)
test.parameters: Mycobacterium tuberculosis non-replicating, at 25 µM, stronger effect = higher value
About 1,300 (0.41%) of roughly 320,000 compounds were called active. Not shown: some 3% with an inconclusive outcome. Not all results are given here. Results with a measured potency or affinity are listed apart.

Before answering, review these 2 worked examples.
CCc1nonc1NC(=O)c1oc2ccc(F)cc2c1C : -7.95%
O=C(OCc1cncs1)c1ccccc1Cl : 32.7%

Field inhibition (entry COCCNCC(O)CON=C1c2ccccc2-c2ccccc21 (stereo unspecified) ) reads 54.3%

get_value(item= CC(=O)Nc1nccc(-c2cc(-c3ccccc3)no2)n1 , readout=inhibition) returns 2.66%

# compound O=C(NCCc1ccc(F)cc1)c1cc2ccccc2oc1=O ; its inhibition = 47.5%

// inhibition lookup, compound = COc1cccc2cc(C(=O)NCCc3c[nH]c4ccccc34)c(=O)oc12 , result: 61%

----------
// inhibition lookup, one value per entry
procedure.details: growth inhibition of non-replicating M. tuberculosis (AID 488890)
test.parameters: Mycobacterium tuberculosis non-replicating, at 25 µM, stronger effect = higher value
Hit rate of the full screen: of about 320,000 compounds, about 1,300 (0.41%) were called active. Not shown: some 3% with an inconclusive outcome. Only a sample is shown. Results with a measured potency or affinity are listed apart.
Expressed in %, but write only the number.

COc1c(F)c(F)cc2c(=O)c(C(=O)O)cn(C3CC3)c12 : 4.5
CCOC(=O)c1cn(C2CC2)c2c(F)c(F)c(F)cc2c1=O : -13
c1ccc(-c2csc(Nc3cccnc3)n2)nc1 : 24.5
Cc1cc(C)c2ccc(C(=O)O)nc2c1O : 15.6
CC(=O)N1N=C(c2ccc(Cl)cc2)CC1c1ccc([N+](=O)[O-])cc1 (stereo unspecified) : -10.2

response.value for CCOC(=O)C1CCN(c2c(-c3ccccc3)c3cc(Cl)ccc3[nH]c2=O)CC1 (field: inhibition) = -6.2

Consider c1ccc(Nc2nc(-c3ccncc3)cs2)cc1 . Its measured inhibition is 0.69

Briefly, inhibition measured for CS(=O)(=O)c1cnc(-c2ccccc2)nc1Oc1ccc(Cl)cc1 : -7.01

The molecule identified as COc1cccc(-c2nnc(-c3ccco3)o2)c1 registered its inhibition at 65.8

For this molecule ( CCCCCN(C(=O)CCC(=O)OCCOc1ccccc1)c1c(N)n(CCCC)c(=O)[nH]c1=O ), measured inhibition is -0.11

// field: inhibition; key: Cc1c(-n2cc(C(=O)O)c(=O)c3cc(F)c(N4CCCC(O)C4)c(F)c32)c(=O)n(-c2ccccc2)n1C (stereo unspecified) ; value = 0.14

----------
procedure.details: growth inhibition of non-replicating M. tuberculosis (AID 488890)
test.parameters: Mycobacterium tuberculosis non-replicating, at 25 µM, stronger effect = higher value
Screen size: about 320,000 compounds; about 1,300 (0.41%) were called active. Not shown: some 3% with an inconclusive outcome. Not all results are given here. Potency and affinity values are given separately.
Okay, here is how we bin by inhibition: range A = under 10%, range B = from 10% up to 60%, range C = 60% and over

Record excerpt, results attached:
CCOc1ccc(N2C(=O)CC(N(CCc3ccc(OC)c(OC)c3)C(=O)/C=C/C(=O)O)C2=O)cc1 (stereo unspecified) : range B
O=C(Nc1nccs1)c1cc(Cl)ccc1[N+](=O)[O-] : range B
CCOC(=O)COc1ccc(/C=C2/C(=O)NN(c3ccc(F)cc3)C2=O)cc1OC : range C
CCOc1cccc2cc(C(=O)Nc3cc(C)on3)c(=O)oc12 : range C
CCOc1ccccc1C(=O)Nc1nccs1 : range A
COc1cc(/C=C2/C(=O)NN(c3ccc(Cl)cc3)C2=O)cc(OC)c1O : range B
COc1ccc(-c2nnc(NC(=O)c3cc(C)on3)s2)cc1 : range C
O=C(Nc1nccs1)c1ccc(Cl)cc1[N+](=O)[O-] : range A
Cc1ccc(Cc2c(C)c(C#N)c3[nH]c4ccccc4n3c2=O)cc1 : range B

Attention now turns to another entry.
Which bin, given its inhibition, does Cc1cccc(Cn2c(Cc3ccccc3)nc3ccccc32)c1 occupy?
range B

----------
The following compounds are shown together with reported inhibition values.
procedure.details: growth inhibition of non-replicating M. tuberculosis (AID 488890);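 also: plate controls were DMSO cells for no effect and high antibiotic wells for full effect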
test.parameters: Mycobacterium tuberculosis non-replicating, at 25 µM, stronger effect = higher value
Screen size: about 320,000 compounds; about 1,300 (0.41%) were called active. About 3% were inconclusive and are not listed. Not all results are given here. Measured potencies and affinities stand elsewhere.
Dear colleague, please return just the value in %, with no unit written.

Worked examples follow.
O=C(OCn1nnc2ccccc2c1=O)c1ccc(S(=O)(=O)N2CCOCC2)cc1 : 33.4
O=C(CSc1nnc(C2COc3ccccc3O2)o1)Nc1ccc(F)cc1Cl (stereo unspecified) : 27.9
OC(c1ccccc1)C1CN(Cc2ccccc2)CCC1(O)c1ccccc1 (stereo unspecified) : 16.7
COc1ccc(NC(=O)CSc2nc3ccsc3c(=O)n2CCCCCC(=O)O)cc1 : -12.1
Cc1c(NC(=O)COC(=O)Cn2cc(C(F)(F)F)ccc2=O)cccc1[N+](=O)[O-] : -1.08

Summary for this compound, COc1ccc2c(c1OC)C(=O)OC2Nc1nc(-c2cc3ccccc3oc2=O)cs1 (stereo unspecified) : inhibition is 2.83

According to the records, this compound COc1cc(C=Nc2c(C)cc(C)cc2C)ccc1OC(C)=O displays inhibition of -9.04

Measured inhibition of O=C(CN1CCN(CCN2C(=O)c3cccc4cccc(c34)C2=O)CC1)c1ccc(F)cc1 : 79.3

----------
The entries below are paired with their reported inhibition.
procedure.details: growth inhibition of non-replicating M. tuberculosis (AID 488890);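 also: plate controls were DMSO cells for no effect and high antibiotic wells for full effect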
test.parameters: Mycobacterium tuberculosis non-replicating, at 25 µM, stronger effect = higher value
Among all 320,000 compounds or so, about 1,300 (0.41%) were called active. Another 3% or so got no clear call; they are omitted. A selection follows. Results with a measured potency or affinity are listed apart.

CC1CCC(NC(=O)C2CC(O)CN2S(=O)(=O)c2ccc([N+](=O)[O-])cc2)CC1 (stereo unspecified) : 11.1%
O=C(NCc1ccco1)c1cccc(S(=O)(=O)N2CCCCC2)c1 : 16.4%
CCCN(CC(=O)Nc1ccccc1C)C(=O)c1ccc(C(=O)c2ccccc2)cc1 : 18.4%

Measured inhibition of Cc1ccccc1CC(=O)N1CCN(S(=O)(=O)c2cccs2)CC1 : -18.2%

----------
molecules and their reported inhibition
procedure.details: growth inhibition of non-replicating M. tuberculosis (AID 488890);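 also: plate controls were DMSO cells for no effect and high antibiotic wells for full effect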
test.parameters: Mycobacterium tuberculosis non-replicating, at 25 µM, stronger effect = higher value
In all, about 320,000 compounds went through this assay and about 1,300 (0.41%) were called active. Roughly 3% stayed inconclusive and do not appear here. These entries were drawn from the full list. Potency and affinity values are given separately.
Give a bare numeral; the unit % is implied.

Below, each entry is followed by its recorded inhibition result.
Cn1c(NC(=O)c2cccnc2)nc2ccccc21 : 74.7
Cc1c(Cl)cccc1NC(=O)Cn1cc(C(F)(F)F)cc(Cl)c1=O : 3.98

Just so you know, measured inhibition for CC(C)C(=O)Nc1ncc(Cc2ccccc2Cl)s1 came out at 4.24

inhibition reported for this molecule CCOP(=O)(Cc1cc(C(=O)CC)c(C)o1)OCC : -21.9

Input O=C(Nc1ncc(Cc2ccccc2)s1)C1COc2ccccc2O1 (centres undefined) . Output inhibition: 64

Entry under test: CCn1c(C)nc2cc(C(=O)N/N=C/c3ccc(OC)cc3)ccc21 . Its inhibition was -1.99

The reported value for N#Cc1cnn2c(N)c(-c3ccc(Cl)cc3)cnc12 in terms of inhibition is -16.2

Reported inhibition of CCCn1c(CNC(=O)c2ccccc2)nc2ccccc21 : 1.31

Lab note: measured inhibition of Cc1oc(-c2ccccc2F)nc1CS(=O)(=O)CC(=O)NCCCc1ccccc1 was -19.5

Recorded inhibition (molecule O=C(Nc1nc2ccccc2n1CCN1CCOCC1)c1ccccc1 ): 78.5

Item: CCNC(=O)N(C)C[C@H]1N[C@@](C)(C(=O)OC)[C@H]2C(=O)N(C)C(=O)[C@@H]12 | inhibition: 2.38

Input Cn1c(CCNC(=O)c2ccccc2)nc2ccccc21 . Output inhibition: -11.6
